From: ChEMBL document CHEMBL4715857

target: UniProt Q13822
Grouping key: IC50. Bins: A = under 200 nM, B = from 200 nM up to 600 nM, C = 600 nM and over

[Q] Entry `CCn1cc(C(=O)O)c2cc(-c3nc(CN4CCN(CCO)CC4)cs3)ccc21` belongs to which category?
[A] B

[Q] Entry `CCn1cc(NC(=O)NCc2ccc(Cl)cc2)c2cc(NC(=O)c3ccc(CN4CCCC4)cc3)ccc21` belongs to which category?
[A] B

[Q] Entry `CCn1cc(NC(=O)NCc2ccc(F)cc2)c2cc(NC(=O)c3ccc(CN4CCN(CCO)CC4)cc3)ccc21` belongs to which category?
[A] A

[Q] Entry `CCn1cc(C(=O)O)c2cc(-c3nc(CN4CCC(O)CC4)cs3)ccc21` belongs to which category?
[A] C

[Q] Entry `CCn1cc(NC(=O)NCc2ccc(F)cc2)c2cc(-c3nc(CN4CCC(O)CC4)cs3)ccc21` belongs to which category?
[A] B

[Q] Entry `CCn1cc(NC(=O)NCc2ccc(Cl)cc2)c2cc(-c3nc(CN4CCN(CCO)CC4)cs3)ccc21` belongs to which category?
[A] A

[Q] Entry `CCn1cc(NC(=O)NCc2ccc(F)cc2)c2cc(NC(=O)c3ccc(CN4CCC(O)CC4)cc3)ccc21` belongs to which category?
[A] A

[Q] Entry `CCn1cc(C(=O)N/N=C/c2ccc(C(F)(F)F)cc2)c2cc(-c3nc(CN4CCOCC4)cs3)ccc21` belongs to which category?
[A] C

[Q] Entry `CCn1cc(C(=O)O)c2cc(-c3nc(CN(CO)CO)cs3)ccc21` belongs to which category?
[A] C

[Q] Entry `CCn1cc(NC(=O)NCc2ccc(F)cc2)c2cc(NC(=O)c3ccc(CN4CCOCC4)cc3)ccc21` belongs to which category?
[A] A

[Q] Entry `CCn1cc(NC(=O)NCc2ccc(F)cc2)c2cc(-c3nc(CN(CCO)CCO)cs3)ccc21` belongs to which category?
[A] B
